log2 ratio of Biotin-Ahx-Ub-VS probe labelling reference
system name: FAM105A (UniProt Q9NUU6)
Sequence (Q9NUU6 whole entry, the tested form may be a part): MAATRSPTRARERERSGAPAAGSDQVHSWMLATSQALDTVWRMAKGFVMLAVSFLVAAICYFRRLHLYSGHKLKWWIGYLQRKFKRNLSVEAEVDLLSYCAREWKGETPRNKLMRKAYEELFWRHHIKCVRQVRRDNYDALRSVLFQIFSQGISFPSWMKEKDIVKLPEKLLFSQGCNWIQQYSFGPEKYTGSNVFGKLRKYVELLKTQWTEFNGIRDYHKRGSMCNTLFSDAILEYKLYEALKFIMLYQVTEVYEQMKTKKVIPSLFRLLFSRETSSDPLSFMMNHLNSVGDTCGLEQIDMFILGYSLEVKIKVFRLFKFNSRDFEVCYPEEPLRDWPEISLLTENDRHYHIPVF
method: log2 ratio of Biotin-Ahx-Ub-VS probe labelling (fragment/DMSO); higher = less target engagement (more negative = stronger competition), active = hit call of the paper (q ≤ 0.05, log2 ratio ≤ -1)
condition description: compound concentration: 200 uM; treatment time: 3 h
assay readout: log2 ratio of Biotin-Ahx-Ub-VS probe labelling

>  <compound>
NC(=O)C1CCCN(C(=O)CCl)C1 (stereo not drawn)

>  <system name>
FAM105A (UniProt Q9NUU6)

>  <reported>
0.217 (inactive)

$$$$
>  <compound>
O=C(CCl)Nc1cc2c(cc1Cl)OCCCO2

>  <system name>
FAM105A (UniProt Q9NUU6)

>  <reported>
0.278 (inactive)

$$$$
>  <compound>
O=C(CCl)N(C1CCCC1)C1CCS(=O)(=O)C1 (stereo not drawn)

>  <system name>
FAM105A (UniProt Q9NUU6)

>  <reported>
0.169 (inactive)

$$$$
>  <compound>
COc1cccc(CN(C)C(=O)CCl)c1

>  <system name>
FAM105A (UniProt Q9NUU6)

>  <reported>
-0.419 (inactive)

$$$$
>  <compound>
CS(=O)(=O)N1CCCN(C(=O)CCl)CC1

>  <system name>
FAM105A (UniProt Q9NUU6)

>  <reported>
-0.12 (inactive)

$$$$
>  <compound>
Cl.O=C(CCl)N1CCn2ncc(O)c2C1

>  <system name>
FAM105A (UniProt Q9NUU6)

>  <reported>
-0.377 (inactive)

$$$$
>  <compound>
CCCn1nccc1NC(=O)CCl

>  <system name>
FAM105A (UniProt Q9NUU6)

>  <reported>
0.145 (inactive)

$$$$
>  <compound>
O=C(CCl)NC1CCOc2ccccc21 (stereo not drawn)

>  <system name>
FAM105A (UniProt Q9NUU6)

>  <reported>
0.29 (inactive)

$$$$
>  <compound>
Cl.O=C(CCl)N1CC(c2ccc(Br)cn2)C1

>  <system name>
FAM105A (UniProt Q9NUU6)

>  <reported>
0.0979 (inactive)

$$$$
>  <compound>
O=C(CCl)N1CCN(C(=O)Nc2ccccc2)CC1

>  <system name>
FAM105A (UniProt Q9NUU6)

>  <reported>
0.233 (inactive)

$$$$
>  <compound>
O=C(CCl)N1CCCC2CCCCC21 (stereo not drawn)

>  <system name>
FAM105A (UniProt Q9NUU6)

>  <reported>
0.212 (inactive)

$$$$
>  <compound>
Cc1ccc(N(C(=O)CCl)C2C=CS(=O)(=O)C2)cc1 (stereo not drawn)

>  <system name>
FAM105A (UniProt Q9NUU6)

>  <reported>
0.167 (inactive)

$$$$
>  <compound>
NC(=O)C(Cc1ccccc1)NC(=O)CCl (stereo not drawn)

>  <system name>
FAM105A (UniProt Q9NUU6)

>  <reported>
-0.0569 (inactive)

$$$$
>  <compound>
O=C(CCl)N1CCc2ccccc2C(O)C1 (stereo not drawn)

>  <system name>
FAM105A (UniProt Q9NUU6)

>  <reported>
-0.413 (inactive)

$$$$
>  <compound>
O=C(CCl)Nc1ccc(F)cc1F

>  <system name>
FAM105A (UniProt Q9NUU6)

>  <reported>
0.102 (inactive)

$$$$
>  <compound>
CC(=O)Nc1ccc(NC(=O)CCl)cc1

>  <system name>
FAM105A (UniProt Q9NUU6)

>  <reported>
-0.285 (inactive)

$$$$
>  <compound>
Cl.O=C(CCl)N1CCn2cncc2C1

>  <system name>
FAM105A (UniProt Q9NUU6)

>  <reported>
-0.433 (inactive)

$$$$
>  <compound>
O=C(CCl)N1c2ccccc2NC(=O)C12CCCC2

>  <system name>
FAM105A (UniProt Q9NUU6)

>  <reported>
0.141 (inactive)

$$$$
>  <compound>
Cc1ncsc1CCNC(=O)CCl

>  <system name>
FAM105A (UniProt Q9NUU6)

>  <reported>
0.185 (inactive)

$$$$
>  <compound>
Cc1ccc(CC(CO)CNC(=O)CCl)cc1 (stereo not drawn)

>  <system name>
FAM105A (UniProt Q9NUU6)

>  <reported>
0.442 (inactive)

$$$$
>  <compound>
O=C(CCl)Nc1cccc(C(=O)N2CCSCC2)c1

>  <system name>
FAM105A (UniProt Q9NUU6)

>  <reported>
0.0218 (inactive)

$$$$
>  <compound>
Cl.Cn1nc2c(c1CNC(=O)CCl)CCCC2

>  <system name>
FAM105A (UniProt Q9NUU6)

>  <reported>
-0.099 (inactive)

$$$$
>  <compound>
Cl.O=C(CCl)NCc1cc2c(nc1O)CCCC2

>  <system name>
FAM105A (UniProt Q9NUU6)

>  <reported>
0.13 (inactive)

$$$$
>  <compound>
O=C(CCl)Nc1ccccc1C(F)(F)F

>  <system name>
FAM105A (UniProt Q9NUU6)

>  <reported>
0.257 (inactive)

$$$$
>  <compound>
O=C(CCl)Nc1ccc(Cl)c(F)c1

>  <system name>
FAM105A (UniProt Q9NUU6)

>  <reported>
-0.175 (inactive)

$$$$
>  <compound>
O=C(CCl)N1CCOCC1C1CC1 (stereo not drawn)

>  <system name>
FAM105A (UniProt Q9NUU6)

>  <reported>
0.635 (inactive)

$$$$
>  <compound>
O=C(CCl)N1CCCCC12CCOCC2

>  <system name>
FAM105A (UniProt Q9NUU6)

>  <reported>
0.208 (inactive)

$$$$
>  <compound>
Cc1ncc2c(n1)CCN(C(=O)CCl)C2

>  <system name>
FAM105A (UniProt Q9NUU6)

>  <reported>
0.443 (inactive)

$$$$
>  <compound>
O=C(O)C1Cc2ccccc2CN1C(=O)CCl (stereo not drawn)

>  <system name>
FAM105A (UniProt Q9NUU6)

>  <reported>
0.395 (inactive)

$$$$
>  <compound>
Cl.O=C(CCl)NC1(c2ncccn2)CCC1

>  <system name>
FAM105A (UniProt Q9NUU6)

>  <reported>
-0.242 (inactive)

$$$$
>  <compound>
O=C(CCl)N1CCC2(CCC(O)CC2)CC1

>  <system name>
FAM105A (UniProt Q9NUU6)

>  <reported>
0.217 (inactive)

$$$$
>  <compound>
Cl.Cn1ncc2c1CC(NC(=O)CCl)CC2 (stereo not drawn)

>  <system name>
FAM105A (UniProt Q9NUU6)

>  <reported>
0.307 (inactive)

$$$$
>  <compound>
O=C(CCl)NCCc1ccc(F)cc1

>  <system name>
FAM105A (UniProt Q9NUU6)

>  <reported>
-0.364 (inactive)

$$$$
>  <compound>
COc1ccc(C2CCCN2C(=O)CCl)c(OC)c1 (stereo not drawn)

>  <system name>
FAM105A (UniProt Q9NUU6)

>  <reported>
0.0093 (inactive)

$$$$
>  <compound>
Cl.O=C(CCl)NCc1ccnc(Oc2ccccc2F)c1

>  <system name>
FAM105A (UniProt Q9NUU6)

>  <reported>
-0.0684 (inactive)

$$$$
>  <compound>
O=C(CCl)N1CCC(OCc2ccccc2F)CC1

>  <system name>
FAM105A (UniProt Q9NUU6)

>  <reported>
-0.178 (inactive)

$$$$
>  <compound>
O=C(CCl)N1CCC(=C(F)CO)C1

>  <system name>
FAM105A (UniProt Q9NUU6)

>  <reported>
-0.0583 (inactive)

$$$$
>  <compound>
Cc1ccc(CN(C)C(=O)CCl)o1

>  <system name>
FAM105A (UniProt Q9NUU6)

>  <reported>
0.277 (inactive)

$$$$
>  <compound>
O=C(CCl)N1CCC(C(O)c2ccc(F)cc2)CC1 (stereo not drawn)

>  <system name>
FAM105A (UniProt Q9NUU6)

>  <reported>
-0.0782 (inactive)

$$$$
>  <compound>
O=C(CCl)N1CC2(CCOCC2)C1

>  <system name>
FAM105A (UniProt Q9NUU6)

>  <reported>
-0.00776 (inactive)

$$$$
>  <compound>
Cl.Cn1nccc1C(NC(=O)CCl)c1ccccc1 (stereo not drawn)

>  <system name>
FAM105A (UniProt Q9NUU6)

>  <reported>
0.0639 (inactive)

$$$$
>  <compound>
COCC1C=CCCN1C(=O)CCl (stereo not drawn)

>  <system name>
FAM105A (UniProt Q9NUU6)

>  <reported>
0.371 (inactive)

$$$$
>  <compound>
Cl.Cn1ncc2c1CCCC2NC(=O)CCl (stereo not drawn)

>  <system name>
FAM105A (UniProt Q9NUU6)

>  <reported>
0.0219 (inactive)

$$$$
>  <compound>
O=C(CCl)N1CCC(c2ccn[nH]2)C1 (stereo not drawn)

>  <system name>
FAM105A (UniProt Q9NUU6)

>  <reported>
-0.198 (inactive)

$$$$
>  <compound>
O=C(CCl)NC1CCS(=O)(=O)c2ccccc21 (stereo not drawn)

>  <system name>
FAM105A (UniProt Q9NUU6)

>  <reported>
-0.0548 (inactive)

$$$$
>  <compound>
Cc1n[nH]c(=O)c2c(NC(=O)CCl)oc(C)c12

>  <system name>
FAM105A (UniProt Q9NUU6)

>  <reported>
-0.0353 (inactive)

$$$$
>  <compound>
O=C(CCl)NCCC1COCCO1 (stereo not drawn)

>  <system name>
FAM105A (UniProt Q9NUU6)

>  <reported>
-0.278 (inactive)

$$$$
>  <compound>
O=C(CCl)N1CCOC(CCc2ccccc2)C1 (stereo not drawn)

>  <system name>
FAM105A (UniProt Q9NUU6)

>  <reported>
-0.23 (inactive)

$$$$
>  <compound>
CN(Cc1nc2ccccc2[nH]1)C(=O)CCl.Cl

>  <system name>
FAM105A (UniProt Q9NUU6)

>  <reported>
-0.213 (inactive)

$$$$
>  <compound>
N#Cc1ccc(Cl)cc1NC(=O)CCl

>  <system name>
FAM105A (UniProt Q9NUU6)

>  <reported>
-0.217 (inactive)

$$$$
>  <compound>
O=C(CCl)N1CCC(C(=O)N2CCCC2)CC1

>  <system name>
FAM105A (UniProt Q9NUU6)

>  <reported>
-0.324 (inactive)

$$$$
>  <compound>
O=C(CCl)N[C@H]1CCS(=O)(=O)c2ccccc21

>  <system name>
FAM105A (UniProt Q9NUU6)

>  <reported>
-0.522 (inactive)

$$$$
>  <compound>
O=C(CCl)N1CCCN(C(=O)c2ccc(Cl)cc2)CC1

>  <system name>
FAM105A (UniProt Q9NUU6)

>  <reported>
0.113 (inactive)

$$$$
>  <compound>
CN(C)S(=O)(=O)c1ccccc1CNC(=O)CCl

>  <system name>
FAM105A (UniProt Q9NUU6)

>  <reported>
-0.0283 (inactive)

$$$$
>  <compound>
O=C(CCl)N1CCOC2(CCC2)C1

>  <system name>
FAM105A (UniProt Q9NUU6)

>  <reported>
-0.0758 (inactive)

$$$$
>  <compound>
CC1CCc2onc(CNC(=O)CCl)c2C1 (stereo not drawn)

>  <system name>
FAM105A (UniProt Q9NUU6)

>  <reported>
0.123 (inactive)

$$$$
>  <compound>
CCc1c[nH]c(CNC(=O)CCl)n1.Cl

>  <system name>
FAM105A (UniProt Q9NUU6)

>  <reported>
0.0309 (inactive)

$$$$
>  <compound>
O=C(CN1CCN(C(=O)CCl)CC1)Nc1cccc(F)c1

>  <system name>
FAM105A (UniProt Q9NUU6)

>  <reported>
0.21 (inactive)

$$$$
